As shown below, each of these variants has a reported abundance fitness value.
B1: POU domain, class 6, transcription factor 2, residues 609 to 663; numbered along this chain, P78424 (parent)
chain: KRRTSFTPQALEILNAHFEKNTHPSGQEMTEIAEKLNYDREVVRVWFCNKRQALK

# Variants of: B1
# method_summary: abundance fitness (aPCA) (normalised: wild type 0, dead -1); higher = more abundant; growth selection in yeast, the domain comes from the species named
# details: Homo sapiens

Noted for Y38K : its abundance fitness reads -0.133

Noted for W46D : its abundance fitness reads -0.447

Noted for F6L : its abundance fitness reads 0.135

Noted for Q9S : its abundance fitness reads -0.207

Noted for H23Y : its abundance fitness reads -0.257

Noted for T30Q : its abundance fitness reads -0.119

Noted for A16E : its abundance fitness reads -0.002

Noted for T30W : its abundance fitness reads -0.393

Noted for V43H : its abundance fitness reads -1.04

Noted for F18R : its abundance fitness reads -0.856

Noted for C48F : its abundance fitness reads -0.5
